# Species: Homo sapiens
# ASSAY_PROTOCOL: Selectivity ratio of Ki for human CB1 to Ki for human CB2
Think of 2 as a floor: if log(ratioKi) stands on it or above, it is satisfied; beneath it, not satisfied.

MOLECULE	CATEGORY_LABEL
CCC(C)(C)C(=O)Cc1cc(C)c(C)c(S(=O)(=O)N2CCCCCC2)c1	satisfied
Cc1ccc2c(c1)Cc1c(C(=O)NN3CCCCC3)nn(-c3ccc(Cl)cc3Cl)c1-2	satisfied
CCCCCCC(C)(C)c1cc(OC)c2c(c1)OC(C)(C)[C@@H]1CC=C(C)C[C@@H]21	satisfied
CCCCCn1cc(C(=O)NC23CC4CC(CC(C4)C2)C3)c(=O)c2cc(C(F)(F)F)ccc21	satisfied
CCCCCn1cc(C(=O)NC23CC4CC(CC(C4)C2)C3)c(=O)c2cc(-c3cccs3)ccc21	satisfied
CCCCCn1cc(C(=O)NC23CC4CC(CC(C4)C2)C3)c(=O)c2cc(C3=CCCCC3)ccc21	satisfied

# input Hi team, for Cc1ccc(C(=O)NC2C(C)(C)[C@@H]3CC[C@]2(C)C3)cc1S(=O)(=O)N1CCOCC1 (stereo partly drawn) , is the recorded log(ratioKi) at or above 2?
# output not satisfied

# input Same lookup for "C#Cc1ccc2c(c1)c(=O)c(C(=O)NC13CC4CC(CC(C4)C1)C3)cn2CCCCC" , please.
# output satisfied

# input Same lookup for "Cc1nc(C(=O)NC23CC4CC(CC2C4)C3)c(C)n1-c1ccccc1" , please.
# output satisfied

# input Same lookup for "CCCCCn1cc(C(=O)NC23CC4CC(CC(C4)C2)C3)c(=O)c2ccccc21" , please.
# output not satisfied

# input Same lookup for "COCCn1c(C)c(C)s/c1=N\C(=O)C1C(C)(C)C1(C)C" , please.
# output satisfied

----------
# TEST_SYSTEM: Cannabinoid receptor 1 (Homo sapiens, UniProt P21554)
# Sequence (P21554 whole entry): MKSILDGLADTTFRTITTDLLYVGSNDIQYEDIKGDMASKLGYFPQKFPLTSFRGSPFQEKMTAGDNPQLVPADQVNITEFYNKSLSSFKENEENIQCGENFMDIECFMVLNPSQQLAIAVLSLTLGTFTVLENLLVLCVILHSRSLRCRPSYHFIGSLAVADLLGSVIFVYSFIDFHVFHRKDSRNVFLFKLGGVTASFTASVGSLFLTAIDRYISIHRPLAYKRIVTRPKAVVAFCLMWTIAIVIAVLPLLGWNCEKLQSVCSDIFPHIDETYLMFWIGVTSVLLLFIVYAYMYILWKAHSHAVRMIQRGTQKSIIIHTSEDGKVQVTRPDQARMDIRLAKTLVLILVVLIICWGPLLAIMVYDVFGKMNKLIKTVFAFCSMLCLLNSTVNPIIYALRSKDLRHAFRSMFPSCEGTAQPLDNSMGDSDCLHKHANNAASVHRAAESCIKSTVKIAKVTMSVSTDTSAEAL
# ASSAY_PROTOCOL: Displacement of [3H]CP 55940 from human CB1 receptor in cell free system
MEASURED_ENDPOINT: pKi
Answers are plain numbers, as −log10 of the molar value.

Cc1c(C(C)(C)C)s/c(=N\C(=O)c2ccc(OC(F)(F)F)cc2)n1CC1CC1 5.96
CCCCCCC(C)(C)c1cc(OC)c2c(c1)OC(C)(C)[C@@H]1CC=C(C)C[C@@H]21 5.98
Cc1ccc2c(=O)c(C(=O)NC3CCCC3)cn(CCN3CCOCC3)c2n1 6.00
Cc1nc(C(=O)Nc2ccccc2C(F)(F)F)c(C)n1-c1ccccc1 5.85

In the following, a different compound is considered.
# input Need pKi of "CC1(C)C(C(=O)c2cn(CC3CCOCC3)c3ccc(N)cc23)C1(C)C" , thanks.
# output 6.00

----------
# Species on record: Homo sapiens
# ASSAY_PROTOCOL: Selectivity ratio of Ki for human CB1 to Ki for human CB2
MEASURED_ENDPOINT: log(ratioKi)
One number for each entry.

MOLECULE	VALUE_OBSERVED
CC1(C)C(C(=O)c2cn(CC3CCOCC3)c3ccc(N)cc23)C1(C)C	2.05
COc1ccc2c(c1)c(C(=O)C1C(C)(C)C1(C)C)cn2CC1CCOCC1	2
CCCCCn1cc(C(=O)NC23CC4CC(CC(C4)C2)C3)c(=O)c2cc(C3CCCCC3)ccc21	3.14
COCCn1c(C)c(C(C)(C)C)s/c1=N\C(=O)c1ccc(C(F)(F)F)cc1	2.6
CCCCCn1cc(C(=O)NC23CC4CC(CC(C4)C2)C3)c(=O)c2cc(-c3ccc(C#N)cc3)ccc21	2.38
CC1(Cc2ccccc2)COc2cc(C(=O)N3CCCCC3)ccc21 (configuration not stated)	1.37

For each of the items listed, what is its log(ratioKi)?
1. Cc1nc(C(=O)Nc2ccccc2C(F)(F)F)c(C)n1-c1ccccc1
2. CCCCCn1cc(C(=O)NC23CC4CC(CC(C4)C2)C3)c(=O)c2cc(-c3ccc(O)cc3)ccc21

# output
1. 2.6
2. 3.38

For each of the items listed, what is its log(ratioKi)?
1. CCCCCn1cc(C(=O)NC23CC4CC(CC(C4)C2)C3)c(=O)c2cc(-c3ccccc3)ccc21
2. Cc1c(C(C)(C)C)s/c(=N\C(=O)c2ccc(OC(F)(F)F)cc2)n1CC1CC1

# output
[3.42, 2.28]

For each of the items listed, what is its log(ratioKi)?
1. Cc1c(Cl)ccc2c(=O)c(C(=O)NC34CC5CC(CC(C5)C3)C4)c[nH]c12
2. Cc1c(C(=O)NC2CCCCC2)nn(-c2ccc(Cl)c(Cl)c2)c1-n1c(C)ccc1C
3. CC1(C)C(C(=O)c2cn(CC3CCOCC3)c3c(COc4ccccc4)cccc23)C1(C)C
4. CC1(C)C(C(=O)c2cn(CC3CCOCC3)c3ccc(OCc4ccccc4)cc23)C1(C)C
5. CCCCCn1c(C)c(C(=O)c2cccc3ccccc23)c2ccccc21
6. CCCCCn1cc(C(=O)NC23CC4CC(CC(C4)C2)C3)c(=O)c2cc(Br)ccc21

# output
[2.59, 1.05, 0.98, 2.3, 0.28, 1.82]

# input Need log(ratioKi) of "Cc1ccc(NC(=O)C(C)(C(F)(F)F)C(F)(F)F)cc1S(=O)(=O)N1CCOCC1" , thanks.
# output 1.31
